Assign TGI to each entry below.
System: K-562 leukemia
protocolNotes: NCI tumour cell line growth inhibition, 48 h
*1 amine or outer side, *2 acyl side, *3 side chain or, on linkers, in order; H or OH if unused. Where a SMILES comes first, the peptide text is derived from it. Bridges are numbered along the chain shown (N, C = ends). Roman numbers before positions name the chains, in order. [ ]: non-standard residue; d: D form. Actinocin(9to1) = Cc1c2oc3c(C)ccc(C(=O)[*:1])c3nc-2c(C(=O)[*:2])c(N)c1=O; NMeV = CN[CH](C(=O)O)C(C)C; Sar = CNCC(=O)O

Task item: If you can, please state the reported TGI value of Clc1ccc(Cl)c2[s+]snc12 .
Reply: > 67.9 µM

Task item: Which measured TGI value corresponds to C=C(C)[C@@H]1CC[C@]2(C(=O)OC3OC(COC4OC(CO)C(OC5OC(C)C(O)C(O)C5O)C(O)C4O)C(O)C(O)C3O)CC[C@]3(C)[C@H](CC[C@@H]4[C@@]5(C)CC[C@H](O)[C@@](C)(CO)[C@@H]5CC[C@]43C)[C@@H]12 (some centres not stated) ?
Reply: > 6.45 µM

Task item: Could you tell me which TGI is on file for COc1ccc(C2C3=CONC3CC3CCCCC32)cc1 (configuration not stated) ?
Reply: > 100 µM

Task item: What measured TGI goes with COP(=O)(OC)C(NC(c1ccccc1)c1ccccc1)c1ccc2c(c1)OCO2 (configuration not stated) ?
Reply: 65 µM

Task item: Which TGI reading was recorded for the molecule COC(=O)C1=C(C)N(NC(N)=O)C2(N)N(NC(N)=O)C(C)=C(C(=O)OC)C12C(=O)OC (configuration not stated) ?
Reply: > 100 µM

Task item: Name the reported TGI value associated with the molecule Cc1c2oc3c(C)ccc(C(=O)NC4C(=O)NC(Cc5ccc(O)cc5)C(=O)N5CCCC5C(=O)N(C)CC(=O)N(C)C(C(C)C)C(=O)OC4C)c3nc-2c(C(=O)NC2C(=O)NC(Cc3ccc(O)cc3)C(=O)N3CCCC3C(=O)N(C)CC(=O)N(C)C(C(C)C)C(=O)OC2C)c(N)c1=O (configuration not stated) (I: TYP[Sar][NMeV] / II: TYP[Sar][NMeV]; ester I:1-I:C, II:1-II:C; linker I:N-II:N via Actinocin(9to1); configuration not given here)
Reply: > 100 µM

Task item: # query: TGI of entry COc1ccc(C=C2C(=O)OC(C)(C)OC2=O)cc1OC
Reply: > 100 µM

Task item: Give the measured TGI of CC(=O)Nc1ccc(/C=C/[N+](=O)[O-])cc1 .
Reply: 8.57 µM

Task item: May I ask what TGI has been recorded for O=c1n(C2CCCCC2)c(=C(Cl)Cl)c(=C(Cl)Cl)n1C1CCCCC1 ?
Reply: > 100 µM

Task item: Please report the recorded TGI for CC(O)/C=C/C(CCC(C)CO)C(C)C (configuration not stated) .
Reply: > 100 µM

Task item: Returns the measured TGI for the input molecule. Input: C/C(=N\NC(=O)c1ccncc1)c1cccc(C(F)(F)F)c1
Reply: > 10 µM

Task item: Could you share which TGI value was measured for C/C(=N/S(=O)(=O)c1ccc(Cl)c(Cl)c1)OCC(C)(C)C ?
Reply: > 100 µM

Task item: # get_value(readout='TGI', item= Cc1ccc(C(=O)Nc2ccc(CN3CCN(C)CC3)c(C(F)(F)F)c2)cc1C#Cc1cnc(N)cc1C#N )
Reply: 6.12 µM

Task item: Consider the molecule COCCn1cc(-c2csc(-c3c[nH]c4ccccc34)n2)c2cccnc21 and give its measured TGI.
Reply: > 100 µM

Task item: Quick one: TGI of O=c1cccc(C#CC#C[C@H]2O[C@@H]2CO)o1 ?
Reply: > 100 µM

Task item: What value of measured TGI is listed for CCOc1ccc(N=Cc2cccc3cccnc23)cc1 ?
Reply: 82.3 µM

Task item: Quick one: TGI for Cc1ccc2c(c1)nc(C(=O)c1ccco1)c(C(F)(F)F)[n+]2[O-] ?
Reply: > 100 µM
